B1: TOR1AIP2 (parent)
chain: AGQEGEDTLRRRLLAPEAGSHPQQ

- Variants of: B1
- testProtocol: protein stability index of a GFP-peptide fusion (GPS, HEK-293T) (PSI 1-6); higher = more stable;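 also: lentivirally expressed fusions sorted by FACS into six bins by GFP to DsRed ratio, PSI derived from sequencing read proportions per bin multiplied by bin number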
- testParameters: c terminus: a fixed tail appended
The following variants are listed with their measured protein stability index values.
Give only the figure.

Here are 2 variants together with their reported answers.
[
  {
    "mutationName": "G2M",
    "protein stability index": 1.55
  },
  {
    "mutationName": "L14R",
    "protein stability index": 5.17
  }
]

Consider the variant shown here: R11I What is its recorded protein stability index?
2.85

Another variant to check: Q3I
1.55

Another variant to check: L9F
3.61
